Some sequences, each annotated with its measured IFN-γ ELISpot response.
- Test system: PBMC (polyclonal gluten-specific T cells) of paediatric and adult CD patients
- Test Summary: IFN-γ ELISpot of PBMC after 3 day oral wheat challenge (SFU, % of maximal peptide response, dominance scores, EC50; Examples 5-6)
- Format: cell-based, human
- Run Parameters: patient eleven, 6-10 yrs; after oral wheat challenge; cut-off 10 SFU

Some sequences with recorded IFN-γ ELISpot response:
Sequence Record | IFN-γ ELISpot response
QPFPQPEQPFPWQP | 20.5 SFU
PFPLQPEQPFPQP | 8 SFU
QPFPQPEQPFPWQ [Peptide W03, contains DQ2.5-glia-w1 and w2] | 6 SFU

Identify measured IFN-γ ELISpot response corresponding to PIPQQPQQPFPLQ 4 SFU

Return value of IFN-γ ELISpot response for input YEVIRSLVLRTLPN , no commentary. 1 SFU

Could you please provide reported IFN-γ ELISpot response for TIPEQPEQPFPLQ ? Thanks! 3 SFU

Name the recorded IFN-γ ELISpot response of the item LQPFPQPELPYPQPQ in your answer. 57 SFU

###

- Test system: PBMC (polyclonal gluten-specific T cells) of paediatric and adult CD patients
- Test Summary: IFN-γ ELISpot of PBMC after 3 day oral wheat challenge (SFU, % of maximal peptide response, dominance scores, EC50; Examples 5-6)
- Format: cell-based, human
- Run Parameters: subject W (3-5yrs/6-10yrs part), following wheat challenge
Measurement Name: Cross-reactive T cell response (SFU)
Answer with a number only, understood to be in SFU.

Sequence Record | Unit Label | Observed
QLFPLPEQPFPQP | SFU | 4
PEQPFPEQPQPYPQQP | SFU | 9

Look up and state reported Cross-reactive T cell response for QPEQPFPLQPEQPVP 4

State its Cross-reactive T cell response for this sequence: QPFPQPEQPFSWQ 3

Provide one value: measured Cross-reactive T cell response of QPFPQPEQPIPQQ 5

Given the sequence PEQPQPFPEQPVPQQP , write its reported Cross-reactive T cell response. 4

Give reported Cross-reactive T cell response value for PFPLQPEQPVPEQPQ 11

Consider the sequence QPFPQPEQPFPQS . State its measured Cross-reactive T cell response. 6

Give the reported value of Cross-reactive T cell response for this record: FPQTEQPEQPFPQP 5

###

- Test system: PBMC (polyclonal gluten-specific T cells) of paediatric and adult CD patients
- Test Summary: IFN-γ ELISpot of PBMC after 3 day oral wheat challenge (SFU, % of maximal peptide response, dominance scores, EC50; Examples 5-6)
- Type: cell-based, human
- Run Parameters: subject E, 11-17yrs
Measurement Name: Significant response as a percentage of maximal peptide SFU

Sequence Record | Test System | Observed
PEQPFPEQPQPYPQQP | PBMC (polyclonal gluten-specific T cells) of paediatric and adult CD patients | (6-10% - ^)
QPFPQPEQPFPQS | PBMC (polyclonal gluten-specific T cells) of paediatric and adult CD patients | ′′ (21-40% = ′′)
QPFPQPEQQLPLQ | PBMC (polyclonal gluten-specific T cells) of paediatric and adult CD patients | ′ (11-20% = ′)
QPFPQPEQPFSWQ | PBMC (polyclonal gluten-specific T cells) of paediatric and adult CD patients | ′ (11-20% = ′)
NPLQPEQPFPLQPQPP | PBMC (polyclonal gluten-specific T cells) of paediatric and adult CD patients | (6-10% - ^)

Supply Significant response as a percentage of maximal peptide SFU value. Item: QPFPQPEQPFPWQP ′ (11-20% = ′)

State its Significant response as a percentage of maximal peptide SFU: QPFPQPEQPIPYQ ′′ (21-40% = ′′)

Indicate the recorded Significant response as a percentage of maximal peptide SFU value for this sequence: LPFPQPEQPFVVV (6-10% - ^)

Please give the documented Significant response as a percentage of maximal peptide SFU of QEFPQPEQPFPQQ ′ (11-20% = ′)

Specify reported Significant response as a percentage of maximal peptide SFU for the sequence shown: PEQPFQPEQPFPQQ (6-10% - ^)

Please report Significant response as a percentage of maximal peptide SFU for the following sequence: QPFPQPEQELPLQ ′′ (21-40% = ′′)

Name the recorded Significant response as a percentage of maximal peptide SFU of the sequence listed here: QPFPQPEQPIPQQ ′′ (21-40% = ′′)

Please list Significant response as a percentage of maximal peptide SFU recorded for the sequence QPFPQPEQPTPIQ ′′ (21-40% = ′′)

Dear colleague, please send me the reported Significant response as a percentage of maximal peptide SFU for QPFPQPEQPFPLQ when you can. ′′ (21-40% = ′′)

For QPFPQPEQPFRQQ , write its Significant response as a percentage of maximal peptide SFU. ′ (11-20% = ′)

Value source: patent US20170232083A1
